- target: PRMT5/MEP50 (Homo sapiens)
- Construct: Expressed full-length human Flag-PRMT5/6His-MeP50 protein complex was purified; made in house; host or cells: Spodoptera frugiperda (SF9) insect cells, baculovirus (pDEST8)
- protocolDescription: PRMT5 Biochemical Assay (PRMT5/MEP50 enzyme assay on peptide substrate, 3H-SAM Flashplate)
- protocolConditions: Table D-2; read-out: Biochemical IC50
readoutLabel: IC50

Param item = CCOC(=O)C1c2ccccc2CCN1CC(O)COc1cccc(-c2ccc3ncn(C)c3c2)c1 (stereo not shown) [Compound D193] ; retrieve measured IC50.
> 40 µM

Consider the compound shown here: OC(COc1cccc(C2CCCCC2)c1)CN1CCc2ccccc2C1 (stereo not shown) [Compound D52] What is its recorded IC50?
1 to 10 µM

Need IC50, item CCC1c2ccccc2CCN1CC(O)COc1cccc(-c2ccc3ncn(C)c3c2)c1 (stereo not shown) [Compound D179]
0.101 to 1 µM

Please give the measured IC50 for this compound: COc1cc2c(cc1OC)CN(CC(O)COc1cccc(CNC3CCCC3)c1)CC2 (stereo not shown) [Compound D30]
> 40 µM

====

// reported pIC50 for each item listed
- target: PRMT5/MEP50 (Homo sapiens, UniProt O14744)
- Construct: Expressed full-length human Flag-PRMT5/6His-MeP50 protein complex was purified; made in house; host or cells: Spodoptera frugiperda (SF9) insect cells, baculovirus (pDEST8)
- Sequence (O14744 with tags, fused parts or gaps): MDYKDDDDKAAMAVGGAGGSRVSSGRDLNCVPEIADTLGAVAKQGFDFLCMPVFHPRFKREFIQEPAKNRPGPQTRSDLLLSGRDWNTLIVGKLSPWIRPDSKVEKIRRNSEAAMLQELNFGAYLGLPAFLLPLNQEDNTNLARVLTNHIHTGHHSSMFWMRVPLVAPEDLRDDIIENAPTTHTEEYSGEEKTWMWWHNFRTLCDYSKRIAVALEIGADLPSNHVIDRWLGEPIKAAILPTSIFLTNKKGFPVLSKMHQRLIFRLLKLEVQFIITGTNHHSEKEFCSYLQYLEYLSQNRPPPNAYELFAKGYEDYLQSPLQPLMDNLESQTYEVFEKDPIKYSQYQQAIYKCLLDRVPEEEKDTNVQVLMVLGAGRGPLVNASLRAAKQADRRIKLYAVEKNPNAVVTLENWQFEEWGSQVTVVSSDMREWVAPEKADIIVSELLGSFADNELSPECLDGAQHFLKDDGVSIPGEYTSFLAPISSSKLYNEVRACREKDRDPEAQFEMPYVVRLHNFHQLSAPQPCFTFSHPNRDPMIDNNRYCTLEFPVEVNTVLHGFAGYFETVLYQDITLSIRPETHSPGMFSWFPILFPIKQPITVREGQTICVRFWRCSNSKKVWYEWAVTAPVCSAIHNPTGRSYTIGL
- Sequence (Q9BQA1 with tags, fused parts or gaps partner limits assumed): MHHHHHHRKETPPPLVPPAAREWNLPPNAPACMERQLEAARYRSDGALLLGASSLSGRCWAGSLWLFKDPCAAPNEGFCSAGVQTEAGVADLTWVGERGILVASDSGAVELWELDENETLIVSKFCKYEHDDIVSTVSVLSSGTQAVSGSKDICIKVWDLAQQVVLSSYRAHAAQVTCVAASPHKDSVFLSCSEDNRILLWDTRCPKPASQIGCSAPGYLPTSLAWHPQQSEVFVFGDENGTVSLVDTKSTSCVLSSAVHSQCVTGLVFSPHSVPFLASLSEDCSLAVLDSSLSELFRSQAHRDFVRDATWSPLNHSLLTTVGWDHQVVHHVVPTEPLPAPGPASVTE
- protocolDescription: PRMT5 Biochemical Assay (PRMT5/MEP50 enzyme assay on peptide substrate, 3H-SAM Flashplate)
- protocolConditions: Table D-2; read-out: Biochemical IC50
pIC50: −log10 of the molar value.

molecule	measuredResult
OC(COC1CCCN(c2ccccc2)C1)CN1CCc2ccccc2C1 (centres unmarked) [Compound D2]	5.00 to 6.00
CC(=O)c1cccc(-c2cccc(OCC(O)CN3CCc4ccccc4C3)c2)c1 (centres unmarked)	6.00 to 7.00
Cc1cccc2c1CN(CC(O)COc1cccc(-c3ccc4ncn(C)c4c3)c1)CC2 (centres unmarked)	5.00 to 6.00
OC(COc1cccc(CNc2cc[nH]n2)c1)CN1CCc2ccccc2C1 (centres unmarked)	6.00 to 7.00

Now consider the entry below.
Provide the documented pIC50 with PRMT5/MEP50 (Homo sapiens, UniProt O14744) as the system for CNC(=O)Cn1cnc2ccc(-c3cccc(OCC(O)CN4CCc5ccccc5C4)c3)cc21 (centres unmarked)
6.00 to 7.00

====

- target: PRMT5/MEP50 (Homo sapiens, UniProt O14744)
- Construct: Expressed full-length human Flag-PRMT5/6His-MeP50 protein complex was purified; made in house; host or cells: Spodoptera frugiperda (SF9) insect cells, baculovirus (pDEST8)
- protocolDescription: PRMT5 Biochemical Assay (PRMT5/MEP50 enzyme assay on peptide substrate, 3H-SAM Flashplate)
- protocolConditions: Table B-2; PRMT5/MEP50 4 nM, 3H-SAM 75 nM, peptide 40 nM; read-out: Biochemical IC50
- From the text: S-adenosylmethionine (SAM), S-adenosylhomocysteine (SAH), bicine, KCl, Tween20, dimethylsulfoxide (DMSO), bovine skin gelatin (BSG), and Tris(2-carboxyethyl)phosphine hydrochloride solution (TCEP) were purchased from Sigma-Aldrich at the highest level of purity possible. ^3H-SAM was purchase from American Radiolabeled Chemicals with a specific activity of 80 Ci/mmol 384-well streptavidin Flashplates were purchased from PerkinElmer. […]
pIC50: −log10 of the molar value.
Recorded pIC50 values for a group of compounds are listed next.

Below, 8 compounds whose answers are already recorded.
compound	pIC50
CNCCOc1cccc(C(=O)NCC(O)CN2CCc3ccccc3C2)c1 (stereo not shown)	6.00 to 7.00
NS(=O)(=O)c1ccccc1C(=O)NCC(O)CN1CCc2ccccc2C1 (stereo not shown)	5.00 to 6.00
NC(=O)c1cccc(C(=O)NCC(O)CN2CCc3ccccc3C2)c1 (stereo not shown)	6.00 to 7.00
O=C(NCC(O)CN1CCc2ccccc2C1)c1cccc(NC2CCOC2)c1 (stereo not shown)	> 7.00
CC(=O)Nc1ccc(C(=O)NCC(O)CN2CCc3ccccc3C2)cc1 (stereo not shown)	6.00 to 7.00
Cc1c(NC2CCOCC2)cccc1C(=O)NCC(O)CN1CCc2ccccc2C1 (stereo not shown)	> 7.00
O=C(NCC(O)CN1CCc2ccccc2C1)c1ccccn1 (stereo not shown)	6.00 to 7.00
NS(=O)(=O)c1cccc(C(=O)NCC(O)CN2CCc3ccccc3C2)c1 (stereo not shown)	6.00 to 7.00

Fill blank: measured pIC50 of the compound CS(=O)(=O)Nc1ccccc1C(=O)NCC(O)CN1CCc2ccccc2C1 (stereo not shown) is ____.
5.00 to 6.00

What value of pIC50 has been reported for the following compound? O=C(NC[C@H](O)CN1CCc2ccccc2C1)c1ccccc1
> 7.00

====

Reported values of pEC50 for individual entries
- Tested on: Z-138 cells
- protocolDescription: Z-138 Proliferation Assay (Cell Titer Glo, 5 days)
- Assay type: cell-based
- protocolConditions: Homo sapiens, Table D-2
- Method: Z-138 Proliferation Assay Z-138 suspension cells were purchased from ATCC (American Type Culture Collection, Manassas, Va.). […] SpectraMax M5 plate reader was purchased from Molecular Devices LLC, Sunnyvale, Calif., USA. […] Cell viability was measured by quantitation of ATP present in the cell cultures, adding 35 μl of Cell Titer Glo® reagent to the cell plates. Luminescence was read in the SpectraMax M5 microplate reader. […]
pEC50: −log10 of the molar value.

Below are worked cases with known answers.
molecule	target	measuredResult
O=C(Cn1ccc2cnc(-c3cccc(OCC(O)CN4CCc5ccccc5C4)c3)nc21)N1CCOCC1 (centres unmarked)	Z-138 cells	4.40 to 5.00
Cc1ccc(F)c(-c2cccc(OCC(O)CN3CCc4ccccc4C3)c2)c1 (centres unmarked)	Z-138 cells	< 4.70
Cn1ccc2ccc(-c3cccc(OCC(O)CN4CCc5ccccc5C4)c3)nc21 (centres unmarked)	Z-138 cells	< 4.70
OC(COC1CCOCC1)CN1CCc2ccccc2C1 (centres unmarked)	Z-138 cells	< 4.40

Next molecule, pEC50 to be filled in.
Value wanted: pEC50 (Z-138 cells) of entry Cn1cnc2cnc(-c3cccc(OCC(O)CN4CCc5ccccc5C4)c3)nc21 (centres unmarked)
5.00 to 6.00

====

- Test system: Z-138 cells
- protocolDescription: Z-138 Methylation Assay (In Cell Western for symmetric di-methyl arginine and DNA content)
- Format: cell-based
- protocolConditions: Homo sapiens, Table D-2, read-out: ICW EC50
pEC50: −log10 of the molar value.
readoutLabel: pEC50

Check out these entries, answers already filled in.
compound	pEC50
Cn1ccc2ccc(-c3cccc(OCC(O)CN4CCc5ccccc5C4)c3)nc21 (centres unmarked)	6.00 to 7.00
CN(CC(O)CN1CCc2ccccc2C1)c1cccc(CNC2CCOCC2)c1 (centres unmarked)	5.00 to 6.00
COc1ccc(Cl)cc1-c1cccc(OCC(O)CN2CCc3ccccc3C2)c1 (centres unmarked)	5.00 to 6.00
CC1c2ccccc2CCN1CC(O)COc1cccc(-c2ccc3ncn(C)c3c2)c1 (centres unmarked)	< 4.70

Consider the compound COc1ccc(-c2cccc(OCC(O)CN3CCc4ccccc4C3)c2)c(C)c1 (centres unmarked) and give its measured pEC50.
5.00 to 6.00

====

- Tested on: Z-138 cells
- protocolDescription: Z-138 Proliferation Assay (Cell Titer Glo, 5 days)
- Type: cell-based
- protocolConditions: Homo sapiens, Table D-2
- Method: Z-138 Proliferation Assay Z-138 suspension cells were purchased from ATCC (American Type Culture Collection, Manassas, Va.). […] SpectraMax M5 plate reader was purchased from Molecular Devices LLC, Sunnyvale, Calif., USA. […] Cell viability was measured by quantitation of ATP present in the cell cultures, adding 35 μl of Cell Titer Glo® reagent to the cell plates. Luminescence was read in the SpectraMax M5 microplate reader. […]
// reported EC50 for each item listed

compound	measuredResult
Cn1cnc2ccc(-c3cccc(NCC(O)CN4CCc5ccccc5C4)c3)cc21 (centres unmarked)	1 to 10 µM

What is its EC50 for Z-138 cells? Entry: OC(COc1ccc(C2CCNCC2)cc1)CN1CCc2ccccc2C1 (centres unmarked)
10 to 40 µM

Checklist item: EC50 tested on Z-138 cells, entry O=C(Cn1cnc2ccc(-c3cccc(OCC(O)CN4CCc5ccccc5C4)c3)cc21)N1CCCCC1 (centres unmarked) , value?
10 to 40 µM

Form field: EC50 recorded for Oc1cccc(-c2cccc(OCC(O)CN3CCc4ccccc4C3)c2)c1 (centres unmarked) with Z-138 cells (enter value)
10 to 40 µM

For the record OC(COc1cccc(-c2cc(C(F)(F)F)ccc2Cl)c1)CN1CCc2ccccc2C1 (centres unmarked) , what value of EC50 is listed for Z-138 cells?
10 to 40 µM

Notebook: pull reported EC50 for Z-138 cells, entry Cn1ccc2cnc(-c3ccnc(NCC(O)CN4CCc5ccccc5C4)c3)nc21 (centres unmarked)
1 to 10 µM

Please provide the recorded EC50 for Cn1cnc2cc(-c3cc(NCC(O)CN4CCc5ccccc5C4)n[nH]3)ccc21 (centres unmarked) , tested on Z-138 cells.
1 to 10 µM

Form field: EC50 recorded for Cn1ncc2ccc(-c3cccc(OCC(O)CN4CCc5ccccc5C4)c3)cc21 (centres unmarked) with Z-138 cells (enter value)
> 20 µM

What measured EC50 is associated with OC(COc1cccc(-c2ccc3c(c2)OCO3)c1)CN1CCc2ccccc2C1 (centres unmarked) on Z-138 cells?
10 to 40 µM

Lab note: need EC50 for CN1CCC(n2cnc3ccc(-c4ccnc(NCC(O)CN5CCc6ccccc6C5)c4)cc32)C1 (centres unmarked) on Z-138 cells, anyone have it?
1 to 10 µM

Tell me reported EC50 for CNC(=O)Cn1ccc2cnc(-c3ccnc(NCC(O)CN4CCc5ccccc5C4)c3)nc21 (centres unmarked) , tested with Z-138 cells.
1 to 10 µM

I'm curious: which EC50 was measured for Cn1cnc2ccc(-c3cccc(OC[C@H](O)CN4CCc5ccccc5C4)c3)cc21 tested on Z-138 cells?
1 to 10 µM

Find EC50 (Z-138 cells) for the entry OC(COc1cccc(-c2ccc3nn[nH]c3c2)c1)CN1CCc2ccccc2C1 (centres unmarked)
1 to 10 µM

# value lookup — system Z-138 cells, readout EC50, item OC(COC1CCNC1)CN1CCc2ccccc2C1 (centres unmarked)
> 40 µM

Find the measured EC50: item OC(COc1cccc(-c2csc3ccccc23)c1)CN1CCc2ccccc2C1 (centres unmarked) , target or system Z-138 cells.
> 20 µM

Z-138 cells / EC50 / COc1ccc(-c2cccc(OCC(O)CN3CCc4ccccc4C3)c2)c(Cl)c1 (centres unmarked) : value?
10 to 40 µM

Record O=C1NCc2ccc(-c3cccc(OCC(O)CN4CCc5ccccc5C4)c3)cc21 (centres unmarked) : what is its EC50 with Z-138 cells?
10 to 40 µM
